Hello, the source for this data is PubChem BioAssay AID1259408, in case you need it.

test system: GENE-TOX genotoxicity assays, various organisms and cells; experiment: GENE-TOX mutagenicity studies; conditions: Species/Cell Type: Mouse lymphoma (L5178Y) cells; Assay Type: Forward gene mutation at the thymidine kinase (TK) locus; chromosome aberrations; Assay Code: L51+; Evaluation Type: Evaluation A (Pre-1980)
Calls of active or inactive are those of the source. How the calls were made is not given here.
measurement_type: mutagenic call

compound=CCN(CC)CCNc1ccc(C)c2sc3ccccc3c(=O)c12 reported_result="active; positive"
compound=CN(Cc1cnc2nc(N)nc(N)c2n1)c1ccc(C(=O)N[C@@H](CCC(=O)O)C(=O)O)cc1 reported_result="active; positive"
compound="CC1CCCCN1CCNc1ccc(CO)c2sc3ccccc3c(=O)c12 (configuration not stated)" reported_result="active; positive"
compound=COS(C)(=O)=O reported_result="active; positive"
compound=CCOS(C)(=O)=O reported_result="active; positive"
compound=CCN(CCNc1ccc(CO)c2sc3ccccc3c(=O)c12)CC(C)(C)O reported_result="active; positive"
compound=CCN(CC)CCn1nc2c3c(c(CO)ccc31)Sc1cc(Cl)ccc1-2 reported_result="active; positive"
compound=CCN(CC)CCn1nc2c3c(c(C)ccc31)Sc1cc(Cl)ccc1-2 reported_result="active; positive"

Entry under test: "[N-]=[N+]=[N-]" . Its mutagenic call was active; positive
